Tested on: HL-60 cells
protocol-description: HL-60 differentiation (nitro blue tetrazolium reduction)
Format: cell-based, human
details: differentiation of HL-60 cells into monocytes; FIG. 2; read-out: EC50, HL-60 cell differentiation
reported-property: EC50 (nM)

1) C=C1/C(=C\C=C2/CCC[C@]3(C)[C@@H]([C@H](C)CCCC(C)(C)O)CC[C@@H]23)C[C@@H](O)C[C@@H]1O [1α,25-dihydroxyvitamin D3, reference compound]
2

----------
study-target: full-length recombinant rat vitamin D receptor (Rattus norvegicus, UniProt P13053)
Construct: Full-length recombinant rat receptor was expressed in E. coli; histidine tag (C)
Sequence (P13053 1-423): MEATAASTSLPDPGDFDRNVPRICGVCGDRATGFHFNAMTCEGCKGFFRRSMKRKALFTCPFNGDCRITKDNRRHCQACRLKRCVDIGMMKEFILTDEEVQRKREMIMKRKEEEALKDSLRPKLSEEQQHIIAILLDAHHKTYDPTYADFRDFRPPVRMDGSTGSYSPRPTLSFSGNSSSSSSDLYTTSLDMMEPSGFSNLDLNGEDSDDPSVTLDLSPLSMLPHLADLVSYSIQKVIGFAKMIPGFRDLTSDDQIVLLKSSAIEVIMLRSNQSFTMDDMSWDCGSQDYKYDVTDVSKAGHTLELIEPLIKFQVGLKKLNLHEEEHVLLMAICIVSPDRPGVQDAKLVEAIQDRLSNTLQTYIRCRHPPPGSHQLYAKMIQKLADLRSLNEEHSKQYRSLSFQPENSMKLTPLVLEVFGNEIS
protocol-description: Vitamin D receptor binding, competition with [3H]-1,25(OH)2D3
details: full-length recombinant rat VDR; FIG. 1
reported-property: Ki (nM)

1) C=C1[C@H](O)CC(=C/C=C2\CCC[C@]3(C)[C@@H]([C@H](C)/C=C/C(=O)C4(C(=O)CCCCC)CC4)CC[C@@H]23)C[C@H]1O
0.3

Recorded values, source patent US10479764B2.
